Quick reference: log10 Ki of the listed items.
# SYSTEM_TESTED: CCR2 (Homo sapiens)
# Construct: Membranes were prepared from THP-1 cells; endogenous in cells
# EXPERIMENT: CCR2 receptor membrane binding assay ([125I]MCP-1, THP-1 cell membranes, SPA beads)
# CONDITION_DESCRIPTION: dissociation constant hKi; [125I]MCP-1 binding to THP-1 membranes
Quick note: numbers are log10 of Ki, with nM as the unit.

Illustrative cases are given below, each with its answer.
Cc1c(NCCc2ccc(Cl)c(Cl)c2)ncnc1C(=O)N1CCC(N2CCC(N(C)S(C)(=O)=O)CC2)CC1 [Example 53] = 1.26
Cc1c(NCC2COc3ccccc3C2)ncnc1C(=O)N1CCC(N2CCC(NS(C)(=O)=O)CC2)CC1 (centres unmarked) [Example 71] = 2.07
Cc1c(NCc2ccc(Cl)c(Cl)c2)ncnc1C(=O)N1CCC(N2CCCCCC2)CC1 [Example 235] = 2.66
Cc1c(NCCc2ccc(Cl)c(Cl)c2)ncnc1C(=O)N1CCC(N2CCC(F)CC2)CC1 [Example 167] = 2.39
Cc1c(NCCc2ccc(F)c(F)c2)ncnc1C(=O)N1CCC(N2CCCCC2)CC1 [Example 132] = 2.83

Consider Cc1c(NCC2COc3ccccc3C2)ncnc1C(=O)N1CCC(N2CCC(N(C)S(C)(=O)=O)CC2)CC1 (centres unmarked) [Example 57] . Its measured log10 Ki is 1.97

So, COC1COCCC1NC1CCN(C(=O)c2ncnc(NCc3ccc(C(C)(C)C)cc3)c2C)CC1 (centres unmarked) [Example 228c] ? Its log10 Ki was 1.46

Per the record, Cc1c(NCC2CCN(c3ccccc3)C2)ncnc1C(=O)N1CCC(N2CCC(N(C)S(C)(=O)=O)CC2)CC1 (centres unmarked) [Example 60] has log10 Ki of 1.64

* * *

// values below are reported pKi
# SYSTEM_TESTED: CCR2 (Homo sapiens, UniProt P41597)
# Construct: Membranes were prepared from THP-1 cells; endogenous in cells
# Sequence (P41597 1-360 isoform P41597-2): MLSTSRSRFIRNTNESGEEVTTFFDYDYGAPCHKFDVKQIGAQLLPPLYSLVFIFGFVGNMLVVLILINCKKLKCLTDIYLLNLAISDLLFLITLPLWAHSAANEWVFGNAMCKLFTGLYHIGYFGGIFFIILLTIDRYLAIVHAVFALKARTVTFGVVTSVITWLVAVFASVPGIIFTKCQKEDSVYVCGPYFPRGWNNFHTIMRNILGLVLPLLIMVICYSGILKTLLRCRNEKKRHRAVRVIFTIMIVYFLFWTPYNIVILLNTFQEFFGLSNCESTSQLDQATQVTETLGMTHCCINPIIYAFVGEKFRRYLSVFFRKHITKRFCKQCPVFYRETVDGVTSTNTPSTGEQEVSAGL
# EXPERIMENT: CCR2 receptor membrane binding assay ([125I]MCP-1, THP-1 cell membranes, SPA beads)
# CONDITION_DESCRIPTION: dissociation constant hKi; [125I]MCP-1 binding to THP-1 membranes
When answering, recall that pKi equals minus log10 of the concentration in mol/L, and write that number alone.

CNC(=O)C1CCN(C2CCN(C(=O)c3ncnc(NCc4ccc(Cl)c(Cl)c4)c3C)CC2)CC1 [Example 186] = 7.11
Cc1nc(NCC2Cc3ccccc3C2)c(C)c(C(=O)N2CCC(N3CCC(N(C)S(C)(=O)=O)CC3)CC2)n1 [Example 86] = 7.41
Cc1c(NCC2CCC(c3ccc(Cl)cc3)C2)ncnc1C(=O)N1CCC(N2CCC(N(C)S(C)(=O)=O)CC2)CC1 (centres unmarked) [Example 159c] = 7.89
Cc1nc(NCc2ccc(C(C)(C)C)cc2)c(C)c(C(=O)N2CCC(N3CC[C@@H](C(N)=O)C3)CC2)n1 [Example 267] = 6.31
Cc1c(NCc2ccc(C(C)(C)C)cc2)ncnc1C(=O)N1CCC(N2CCC(C(C)(C)C)CC2)CC1 [Example 200] = 6.97
Cc1c(NCc2ccc(F)c(Cl)c2)ncnc1C(=O)N1CCC(N2CCCCC2)CC1 [Example 128] = 6.35

Looking up Cc1c(NCC2CCc3ccccc3C2)ncnc1C(=O)N1CCC(N2CCC(N(C)S(C)(=O)=O)CC2)CC1 (centres unmarked) [Example 159pb] , I see its pKi listed as 8.00

Lab book: pKi of Cc1c(NCc2ccc(C(C)(C)C)cc2)ncnc1C(=O)N1CCC(N2C3CCC2CC(O)C3)CC1 (centres unmarked) [Example 228gm] noted as 7.55

Input Cc1nc(NCC2CCC(c3ccc(C)c(F)c3)O2)c(C)c(C(=O)N2CCC(N3CCC(N(C)S(C)(=O)=O)CC3)CC2)n1 (centres unmarked) [Example 159ta] . Output pKi: 7.57

// recorded pKi for Cc1c(NCc2ccc(Cl)c(Cl)c2)ncnc1C(=O)N1CCC(N2CCC3(CC2)CCN(S(C)(=O)=O)C3)CC1 [Example 188] : 5.41

Reported pKi for Cc1c(NC[C@H]2C[C@@H](c3ccc(Cl)cc3)C2)ncnc1C(=O)N1CCC(N2CCC(N(C)S(C)(=O)=O)CC2)CC1 [Example 159wb] was 7.80

For C=Cc1c(NC[C@H]2CCC[C@@H](c3ccccc3)C2)ncnc1C(=O)N1CCC(N2CCC(N(C)S(C)(=O)=O)CC2)CC1 [Example 275dk] the compound record lists pKi as 7.77

Value of measured pKi for the entry Cc1c(NCc2ccc(Cl)c(F)c2)ncnc1C(=O)N1CCC(N2CCC(NS(C)(=O)=O)CC2)CC1 [Example 76] : 6.88

Reported pKi ( Cc1c(NCc2ccc(C(C)(C)C)cc2)ncnc1C(=O)N1CCC(N2CC(NS(C)(=O)=O)C2)CC1 [Example 223] ) = 6.61

* * *

# SYSTEM_TESTED: CCR2 (Homo sapiens, UniProt P41597)
# Construct: Membranes were prepared from THP-1 cells; endogenous in cells; host or cells: THP-1 cells (membrane preparation)
# EXPERIMENT: CCR2 receptor membrane binding assay ([125I]MCP-1, THP-1 cell membranes, SPA beads)
# CONDITION_DESCRIPTION: @ 10 μM test compound; THP-1 membranes; read-out: CCR2 % ctrl @ 10 μM
TEST_READOUT: remaining activity at 10 µM (%)
Kindly answer with a numeric value in %, unit omitted.

Worked examples follow.
Cc1c(NCc2ccc(C(F)(F)F)c(F)c2)ncnc1C(=O)N1CCC(N2CCC(O)CC2)CC1 [Example 10] = 27
CNC(=O)[C@@H]1CCN(C2CCN(C(=O)c3ncnc(NCc4ccc(C(F)(F)F)c(Cl)c4)c3C)CC2)C1 [Example 77] = 27
Cc1c(NCC2COc3ccccc3C2)ncnc1C(=O)N1CCC(N2CCC(O)CC2)CC1 (stereo not drawn) [Example 19] = 40

Quick note, remaining activity at 10 µM for Cc1c(Oc2ccc(Cl)cc2)ncnc1C(=O)N1CCC(N2CCC(N(C)S(C)(=O)=O)CC2)CC1 [Example 290] landed at 28

Record COC1CCN(C2CCN(C(=O)c3ncnc(NCc4ccc(Cl)c(F)c4)c3C)CC2)CC1 [Example 95] . Reported remaining activity at 10 µM: 2

Quick note, remaining activity at 10 µM for Cc1c(NCC2CCC(c3ccccc3)CC2)ncnc1C(=O)N1CCC(N2CCCCC2)CC1 (stereo not drawn) [Example 138] landed at 6

* * *

# SYSTEM_TESTED: CCR2 (Homo sapiens, UniProt P41597)
# Construct: Membranes were prepared from THP-1 cells; endogenous in cells
# EXPERIMENT: CCR2 receptor membrane binding assay ([125I]MCP-1, THP-1 cell membranes, SPA beads)
# CONDITION_DESCRIPTION: dissociation constant hKi; [125I]MCP-1 binding to THP-1 membranes
TEST_READOUT: pKi
Just the number, please; pKi means minus log10 of the concentration in mol/L.

Cc1c(NCC2CCCC(c3ccccc3)C2)ncnc1C(=O)N1CCC(N2CCC(O)CC2)CC1 (stereo not shown) = 7.21
COc1nc(OCc2ccc(C(C)(C)C)cc2)c(C)c(C(=O)N2CCC(N3CCC(N(C)S(C)(=O)=O)CC3)CC2)n1 = 7.66
CN(C1CCN(C2CCN(C(=O)c3ncnc(NCc4ccc(C(C)(C)C)cc4)c3C#N)CC2)CC1)S(C)(=O)=O = 5.49

Turning now to a further record.
The compound listed as "Cc1c(NCc2ccc(C(C)(C)C)cc2)ncnc1C(=O)N1CCC(N2CCOCC2)CC1" has a reported pKi of 6.76

* * *

Below, each entry is listed with its recorded remaining activity at 10 µM.
# SYSTEM_TESTED: CCR2 (Homo sapiens)
# Construct: Membranes were prepared from THP-1 cells; endogenous in cells; host or cells: THP-1 cells (membrane preparation)
# EXPERIMENT: CCR2 receptor membrane binding assay ([125I]MCP-1, THP-1 cell membranes, SPA beads)
# CONDITION_DESCRIPTION: @ 10 μM test compound; THP-1 membranes; read-out: CCR2 % ctrl @ 10 μM

Field: example entries. Status: answers known.
Cc1c(NCC2CCN(c3ccccc3)C2)ncnc1C(=O)N1CCC(N2CCC(O)CC2)CC1 (stereo not shown) = 24%
Cc1c(NCc2ccc(C(C)(C)C)cc2)ncnc1C(=O)N1CCC(N2CCC[C@@H]2CC(=O)N(C)C)CC1 = 59%
Cc1c(NCc2ccc(C(C)(C)C)cc2)ncnc1C(=O)N1CCC(N2CC(C)OC(C)C2)CC1 (stereo not shown) = 8%

Tested on CCR2 (Homo sapiens): "Cc1ccc(CNc2ncnc(C(=O)N3CCC(N4CCC(O)CC4)CC3)c2C)cc1Cl" . Observed remaining activity at 10 µM: 18%

* * *

# SYSTEM_TESTED: CCR2 (Homo sapiens)
# Construct: Membranes were prepared from THP-1 cells; endogenous in cells
# EXPERIMENT: CCR2 receptor membrane binding assay ([125I]MCP-1, THP-1 cell membranes, SPA beads)
# CONDITION_DESCRIPTION: dissociation constant hKi; [125I]MCP-1 binding to THP-1 membranes
Just a reminder that ties go to False: only Ki strictly below 200 nM counts as True.

Cc1c(NCC2CCCC(c3ccc(Cl)cc3)C2)ncnc1C(=O)N1CCC(N2CCC(NS(C)(=O)=O)CC2)CC1 (stereo not drawn) [Example 159ca] = True
Cc1c(NCc2ccc(C(C)(C)C)cc2)ncnc1C(=O)N1CCC(N2CCC(Cc3cccnc3)C2)CC1 (stereo not drawn) [Example 228gf] = True
Cc1c(NCc2ccc(C(C)(C)C)cc2)ncnc1C(=O)N1CCC(N(C)C2CCC(F)(F)CC2)CC1 [Example 275d] = False
Cc1nc(NC[C@H]2CC[C@H](c3cccc(C(F)(F)F)c3)O2)c(C)c(C(=O)N2CCC(N3CCC(N(C)S(C)(=O)=O)CC3)CC2)n1 [Example 159ga] = True
CCN(C1CCN(C2CCN(C(=O)c3ncnc(NCc4ccc(C(C)(C)C)cc4)c3C)CC2)CC1)S(C)(=O)=O = True
Cc1c(NCc2ccc(C(C)(C)C)cc2)ncnc1C(=O)N1CCC(N2CCCC2)C1 (stereo not drawn) = False

[Q] Problem: For the compound "CCS(=O)(=O)N(C)C1CCN(C2CCN(C(=O)c3ncnc(NCc4ccc(C)c(Cl)c4)c3C)CC2)CC1" , is Ki under 200 nM?
[A] True

[Q] Check if Ki falls below 200 nM for "Cc1c(NCCc2ccc(Cl)c(Cl)c2)ncnc1C(=O)N1CCC(N2CC[C@@H](O)C2)CC1" .
[A] False

[Q] Find out if reported Ki for "CCS(=O)(=O)N(C)C1CCN(C2CCN(C(=O)c3ncnc(NCc4ccc(C(C)C)cc4)c3C)CC2)CC1" is less than 200 nM
[A] True

[Q] Lab note: Ki threshold 200 nM. Does this compound come in strictly under it? "Cc1c(NCc2ccc(-c3ccccc3)cc2)ncnc1C(=O)N1CCC(N2CCC(O)CC2)CC1"
[A] False

[Q] Determine if CNC(=O)C1CCN(C2CCN(C(=O)c3ncnc(NCC4CCN(c5ccccc5)C4)c3C)CC2)CC1 (stereo not drawn) shows Ki strictly lower than 200 nM.
[A] True

[Q] In the record for Cc1c(NCC2CCC(c3cccc(C(F)(F)F)c3)O2)ncnc1C(=O)N1CCC(N2CCC(N(C)S(C)(=O)=O)CC2)CC1 (stereo not drawn) [Example 159pa] , is Ki less than 200 nM?
[A] True

[Q] Below 200 nM on Ki? Entry Cc1c(NCc2ccc(C(C)(C)C)cc2)ncnc1C(=O)N1CCC(N2CCC(c3ccc(C#N)cc3)CC2)CC1 [Example 228gk]
[A] True

[Q] Does the reported Ki of the following compound sit strictly below 200 nM? "Cc1c(NC2CCCCC2)ncnc1C(=O)N1CCC(N2CCC(O)CC2)CC1"
[A] False

Just for reference, patent US8835440B2 is where these values come from.
